molecular target: mouse NMUR2 (Mus musculus); test: 125I-hNMU-25 binding assay, mouse R2; design: expressed in transfected cells; host or cells: HEK-293 FLP-In cells (pcDNA5); conditions: binding
Sequence (Q8BZ39 whole entry): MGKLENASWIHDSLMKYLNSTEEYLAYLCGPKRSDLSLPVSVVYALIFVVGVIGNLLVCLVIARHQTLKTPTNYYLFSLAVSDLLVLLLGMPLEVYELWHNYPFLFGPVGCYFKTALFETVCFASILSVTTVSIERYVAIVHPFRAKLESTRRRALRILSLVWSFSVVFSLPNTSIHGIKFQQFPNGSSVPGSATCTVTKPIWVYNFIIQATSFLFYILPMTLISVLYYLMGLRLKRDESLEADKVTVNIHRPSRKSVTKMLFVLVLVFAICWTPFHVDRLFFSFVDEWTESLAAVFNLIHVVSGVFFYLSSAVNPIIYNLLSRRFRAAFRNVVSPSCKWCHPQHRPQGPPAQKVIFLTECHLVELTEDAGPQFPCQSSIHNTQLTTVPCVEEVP
Metric: pIC50
Note on pIC50: it is the negative log10 of concentration, concentration in mol/L.

(Q) // pIC50 lookup, key: H-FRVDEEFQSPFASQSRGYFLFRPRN-NH2 [hNMU-25, reference compound]
(A) 9.70

* * *

Target: rat NMUR2 (Rattus norvegicus, UniProt Q9ESQ4)
Sequence (Q9ESQ4 whole entry): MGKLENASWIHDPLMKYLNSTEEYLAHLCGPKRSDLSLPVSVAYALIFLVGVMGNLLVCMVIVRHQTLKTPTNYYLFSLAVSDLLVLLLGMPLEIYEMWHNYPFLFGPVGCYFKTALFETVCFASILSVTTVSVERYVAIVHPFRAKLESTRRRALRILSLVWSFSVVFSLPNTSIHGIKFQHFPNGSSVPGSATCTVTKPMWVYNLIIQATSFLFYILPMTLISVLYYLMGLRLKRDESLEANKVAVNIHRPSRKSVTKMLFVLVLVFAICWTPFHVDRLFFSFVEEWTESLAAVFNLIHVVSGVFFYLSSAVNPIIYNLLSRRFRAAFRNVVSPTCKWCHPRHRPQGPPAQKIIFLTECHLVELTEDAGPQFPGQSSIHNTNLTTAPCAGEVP
Assay: FLIPR calcium mobilization assay, rat NMUR2
Assay type: cell-based
Set-up: expressed in transfected cells; host or cells: FLP-In CHO or HEK-293 FLP-In cells (pcDNA5)
Conditions: functional data, rat R2
Method: […] After a 90 minute incubation at room-temperature, cell plates were loaded onto a FLIPR (Molecular Devices) to monitor cellular fluorescence (excitation=488 nm; emission=540 nm) before and after compound/peptide addition. […] The response after peptide addition was taken as the maximum fluorescence units minus the fluorescence immediately prior to stimulation for each well. EC50 values were calculated using GraphPad Prism (San Diego, Calif.) software. […]
Metric: IC50 (nM)
Just the number please, in nM, no unit attached.

(Q) // IC50 lookup, key: H-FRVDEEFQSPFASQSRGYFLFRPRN-NH2 [hNMU-25, reference compound]
(A) 1.6

* * *

Target: hNMUR1 (Homo sapiens)
Sequence (Q9HB89 1-426): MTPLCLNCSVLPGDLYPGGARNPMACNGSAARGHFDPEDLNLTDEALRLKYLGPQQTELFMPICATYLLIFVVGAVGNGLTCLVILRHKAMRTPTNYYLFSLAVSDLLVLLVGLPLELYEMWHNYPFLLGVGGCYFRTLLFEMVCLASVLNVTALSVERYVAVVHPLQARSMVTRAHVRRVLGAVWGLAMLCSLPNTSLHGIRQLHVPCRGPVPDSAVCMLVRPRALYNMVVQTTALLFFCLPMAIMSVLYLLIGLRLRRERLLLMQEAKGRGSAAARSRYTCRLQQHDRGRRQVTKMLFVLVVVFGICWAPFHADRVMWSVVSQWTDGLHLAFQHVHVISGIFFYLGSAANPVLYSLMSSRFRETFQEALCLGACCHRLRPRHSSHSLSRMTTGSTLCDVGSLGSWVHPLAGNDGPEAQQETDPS
Assay: 125I-hNMU-25 binding assay, human NMUR1 membranes
Parameters: expressed in transfected cells; host or cells: HEK-293 FLP-In cells (pcDNA5); HEK-293/aeq17 lines (pIRES-puro) were also made
Details: Table 8, HEK-hR1, second (binding) column pair
Method: Confluent cell monolayers expressing NMU receptors (the HEK cells described above) were harvested with phosphate buffered saline, collected by centrifugation, and resuspended in membrane buffer (50 mM TrisCl pH 7.4, 5 mM MgCl2, 1× Protease Inhibitor Cocktail, 10 μM phosphoramidon). After the cell pellet was homogenized, the solution was centrifuged at 18,000 rpm for 20 minutes at 4° C. […]
No end group written: not given here.
Metric: pIC50
Note on pIC50: it is the negative log10 of concentration, concentration in mol/L.

(Q) // pIC50 lookup, key: YFWRPRN-NH2 [Agonist A, YFWRPRN-CONH2]
(A) 8.00

* * *

target: mouse NMUR1-ATG (Mus musculus, UniProt O55040); assay: FLIPR calcium mobilization assay, mouse NMUR1-ATG; assay type: cell-based; design: expressed in transfected cells; host or cells: FLP-In CHO or HEK-293 FLP-In cells (pcDNA5); settings: functional data, mouse R1-ATG
Sequence (O55040 whole entry): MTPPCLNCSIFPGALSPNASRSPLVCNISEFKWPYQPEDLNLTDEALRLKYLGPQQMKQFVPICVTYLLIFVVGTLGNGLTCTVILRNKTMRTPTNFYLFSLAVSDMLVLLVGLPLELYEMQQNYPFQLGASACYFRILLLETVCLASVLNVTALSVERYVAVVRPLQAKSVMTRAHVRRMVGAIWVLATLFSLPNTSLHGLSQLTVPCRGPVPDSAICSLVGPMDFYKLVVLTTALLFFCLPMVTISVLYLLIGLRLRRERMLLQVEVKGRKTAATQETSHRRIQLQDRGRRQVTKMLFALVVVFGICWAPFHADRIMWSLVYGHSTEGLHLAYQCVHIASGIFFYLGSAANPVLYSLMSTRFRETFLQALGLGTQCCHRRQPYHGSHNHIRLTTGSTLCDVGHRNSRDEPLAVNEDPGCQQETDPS
Metric: pIC50
Note on pIC50: it is the negative log10 of concentration, concentration in mol/L.

(Q) // pIC50 lookup, key: H-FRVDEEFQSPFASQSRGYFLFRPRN-NH2 [hNMU-25, reference compound]
(A) 9.05

Ref: patent US20100075907A1
